Just for reference, patent US20200347127A1 is where these values come from.

molecular target: T1, recombinant human IL-17A (human, UniProt Q16552 24-155); test: SPR (BIAcore T200), IL-17A coupled to CM5 chip, single-cycle kinetics;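 further: VH domain analytes, kinetic constants obtained by fitting blank-corrected sensorgrams to a 1:1 binding model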
T1 construct: Bought recombinant protein (Peprotech AF-200-17); also called Peprotech AF-200-17
T1 sequence (Q16552 24-155): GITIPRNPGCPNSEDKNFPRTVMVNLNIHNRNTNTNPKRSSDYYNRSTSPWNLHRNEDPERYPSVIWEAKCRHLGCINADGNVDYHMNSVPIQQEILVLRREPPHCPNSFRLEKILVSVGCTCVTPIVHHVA
Listed binders paired with reported kon
Give a bare numeral; the unit M⁻¹ s⁻¹ is implied.

VH 1.18.1 (clone 1.18 expressed from phagemid vector: with linker residues and His tag) (VHH, Human single VH domain) VHH: EVQLVESGGGLVQPGGSLRLSCAASGFTFSSYSMYWVRQAPGKGLEWVAEIKQDGSVQYYVGGVKGRFTISRDNAKNSLYLQMNSLRAEDTAVYYCAKGEILPLYFDYWGQGTLVTVSS | 1.31e+06

Continue with the next binder.
Please give measured kon of the following entry: Clone 1.12 (VHH, Human single VH domain) VHH: QVQLVESGGGLVQPGGSLRLSCAASGFTFSSYGMYWVRQAPGKGLEWVAKIEQDGSEEYYVDSVKGRFTISRDNAKNSLYLQMNSLRAEDTAVYYCAKGEILPLYFDYWGQGTLVTVSS
732000
